Source listed as paper PMC9230548.

biological target: MDMX (Homo sapiens, UniProt O15151); test: fluorescence polarization assay, MDMX binding
Sequence (O15151 whole entry): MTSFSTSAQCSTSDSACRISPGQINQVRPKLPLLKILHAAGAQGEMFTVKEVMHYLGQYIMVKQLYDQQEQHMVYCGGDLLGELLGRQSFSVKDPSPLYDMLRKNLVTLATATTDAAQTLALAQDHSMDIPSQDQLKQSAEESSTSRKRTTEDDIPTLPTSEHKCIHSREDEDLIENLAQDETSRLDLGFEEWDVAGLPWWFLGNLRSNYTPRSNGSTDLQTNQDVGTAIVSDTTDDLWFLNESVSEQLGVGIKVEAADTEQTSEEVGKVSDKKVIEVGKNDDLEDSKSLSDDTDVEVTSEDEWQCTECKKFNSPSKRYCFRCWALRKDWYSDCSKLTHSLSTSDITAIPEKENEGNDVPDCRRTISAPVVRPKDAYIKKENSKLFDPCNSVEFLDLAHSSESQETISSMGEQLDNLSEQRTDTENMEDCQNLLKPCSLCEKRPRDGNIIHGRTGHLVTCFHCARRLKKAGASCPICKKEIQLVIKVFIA
Measure name: Ki (µM)

1. O=C1/C(=C/c2ccccc2Cl)c2ccccc2N1S(=O)(=O)c1cccc(Cl)c1 : 17.4

a: O=C1/C(=C/c2ccc(Cl)cc2)c2ccccc2N1S(=O)(=O)c1ccccc1
b: O=C1/C(=C/c2cccc(Cl)c2)c2ccccc2N1S(=O)(=O)c1ccccc1
Lower value of Ki belongs to which: a or b ? To answer, give the label that identifies your chosen option. b
(b: 10.3 µM, a: 37.4 µM)

---

System: A549 cell line
Experiment: MTT assay, A549
Assay type: cell-based
Conditions: Homo sapiens, A549, 48 h, average of three determinations
Procedure: Compounds were tested at six concentrations (0.001–100 μM). The cells were seeded into a 96-well plate and allowed to attach overnight, after which various concentrations of test compounds or DMSO were added to the culture medium and the cells were incubated for 48 h at 37 °C in a 5% CO2 humidified incubator. Then, 20 μL of 0.5% the fresh MTT solution was added to each well. […] The absorbance at 540 nm was measured using a microplate reader. […]
Measure name: IC50 (µM)

These recorded examples may help you get a feel for the data.
1) O=C1/C(=C/c2ccccc2Cl)c2ccccc2N1S(=O)(=O)c1cccc(Cl)c1 : 18.7
2) O=C1/C(=C/c2cccc(Cl)c2)c2ccccc2N1S(=O)(=O)c1cccc(Cl)c1 : 12.5

I: O=C1/C(=C/c2ccc(Cl)cc2)c2ccccc2N1S(=O)(=O)c1cccc(Cl)c1
II: O=C1/C(=C/c2cccc(Cl)c2)c2ccccc2N1S(=O)(=O)c1cccc(C(F)(F)F)c1
Could you please tell me which of these two has the higher IC50: I or II ? Your choice should be expressed through its label. I
(I: 20.4 µM, II: 13.5 µM)

A: O=C1/C(=C/c2cccc(Cl)c2)c2ccccc2N1S(=O)(=O)c1cccc(F)c1
B: O=C1/C(=C/c2cccc(Cl)c2)c2cc(Cl)ccc2N1S(=O)(=O)c1cccc(Cl)c1
Kindly compare A with B and tell me which has the lower IC50 figure. Respond using the label that marks the chosen record. A
